Target: MDM2 (Homo sapiens, UniProt Q00987)
Sequence (Q00987 1-125): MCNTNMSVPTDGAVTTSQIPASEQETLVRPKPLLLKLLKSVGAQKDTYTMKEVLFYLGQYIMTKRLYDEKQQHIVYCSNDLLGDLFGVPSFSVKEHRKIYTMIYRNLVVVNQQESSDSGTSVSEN
Assay: Competitive fluorescence polarization assay for MDM2
Type: binding
Details: competitive FP assay, MDM2; read-out: IC50 (MDM2)
Where a SMILES comes first, the peptide text is derived from it. Bridges are numbered along the chain shown (N, C = ends). [ ]: non-standard residue; d: D form. R8 = C=CCCCCCC[C@@](C)(N)C(=O)O; Cba = N[C@@H](CC1CCC1)C(=O)O; S5 = C=CCCC[C@](C)(N)C(=O)O; Nle = CCCC[C@H](N)C(=O)O; Ac3c = NC1(C(=O)O)CC1
Catalogue of IC50 readings, one per entry.

{"molecule": "CCCC[C@H](NC(=O)[C@H](C)NC(=O)[C@H](C)NC(=O)[C@]1(C)CCCC=CCCCCCC[C@@](C)(NC(=O)[C@H](Cc2ccccc2)NC(=O)[C@@H](NC(=O)[C@H](CC(C)C)NC(C)=O)[C@@H](C)O)C(=O)N[C@@H](CCC(=O)O)C(=O)N[C@@H](Cc2ccc(O)cc2)C(=O)N[C@@H](Cc2c[nH]c3ccccc23)C(=O)N[C@@H](C)C(=O)N[C@@H](CCC(N)=O)C(=O)N[C@@H](CC2CCC2)C(=O)N1)C(=O)N[C@@H](C)C(N)=O [compound 238] (Ac-LTF[R8]EYWAQ[Cba][S5]AA[Nle]A-NH2; staple 4-11)", "assay.target": "MDM2 (Homo sapiens, UniProt Q00987)", "measured": "10 to 100 nM"}

Q: Query (molecule): CSCC[C@H](NC(=O)[C@H](C)NC(=O)[C@H](C)NC(=O)[C@]1(C)CCCC=CCCCCCC[C@@](C)(NC(=O)[C@H](Cc2ccccc2)NC(C)=O)C(=O)N[C@@H](C)C(=O)N[C@@H](Cc2ccc(O)cc2)C(=O)N[C@@H](Cc2c[nH]c3ccccc23)C(=O)N[C@@H](CCC(=O)O)C(=O)NC2(CC2)C(=O)N[C@@H](CC(C)C)C(=O)N1)C(N)=O [compound 16] (Ac-F[R8]AYWE[Ac3c]L[S5]AAM-NH2; staple 2-9) ; field requested: IC50
Ans: 10 to 100 nM

---

Catalogue of pIC50 readings, one per entry.
Biological target: MDMX (Homo sapiens, UniProt O15151)
Sequence (O15151 1-125): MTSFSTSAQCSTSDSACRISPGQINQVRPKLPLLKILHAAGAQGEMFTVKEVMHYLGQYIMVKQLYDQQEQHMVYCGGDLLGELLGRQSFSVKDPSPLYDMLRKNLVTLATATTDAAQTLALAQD
Assay: Competitive fluorescence polarization assay for MDMX
Format: binding
Details: competitive FP assay, read-out: IC50 (MDMX)
pIC50: −log10 of the molar value. Where a SMILES comes first, the peptide text is derived from it. Bridges are numbered along the chain shown (N, C = ends). [ ]: non-standard residue; d: D form. Phe(4-COOH) = N[C@@H](Cc1ccc(C(=O)O)cc1)C(=O)O; R8 = C=CCCCCCC[C@@](C)(N)C(=O)O; Cba = N[C@@H](CC1CCC1)C(=O)O; S5 = C=CCCC[C@](C)(N)C(=O)O

Previously resolved entries follow.
{"molecule": "CCCC[C@H](NC(=O)[C@H](C)NC(=O)[C@H](C)NC(=O)[C@]1(C)CCCC=CCCCCCC[C@@](C)(NC(=O)[C@H](Cc2ccccc2)NC(=O)[C@@H](NC(=O)[C@H](CC(C)C)NC(=O)[C@H](C)NC(C)=O)[C@@H](C)O)C(=O)N[C@@H](C)C(=O)N[C@@H](Cc2ccc(O)cc2)C(=O)N[C@@H](Cc2c[nH]c3ccccc23)C(=O)N[C@@H](C)C(=O)N[C@@H](CCC(N)=O)C(=O)N[C@@H](CC(C)C)C(=O)N1)C(=O)N[C@@H](C)C(=O)N[C@@H](C)C(N)=O", "outcome.measure": "pIC50", "measured": "6.00 to 7.00"}
{"molecule": "CC(=O)N[C@@H](CC(C)C)C(=O)N[C@H](C(=O)N[C@@H](Cc1ccccc1)C(=O)N[C@]1(C)CCCCCCC=CCCC[C@@](C)(C(=O)N[C@@H](CO)C(=O)N[C@@H](CC(N)=O)C(=O)N[C@H](C)C(N)=O)NC(=O)[C@H](CC(C)C)NC(=O)[C@H](CCC(N)=O)NC(=O)[C@H](C)NC(=O)[C@H](Cc2c[nH]c3ccccc23)NC(=O)[C@H](Cc2ccc(O)cc2)NC(=O)[C@H](C(C)C)NC1=O)[C@@H](C)O [compound 135] (Ac-LTF[R8]VYWAQL[S5]SN[dA]-NH2; staple 4-11)", "outcome.measure": "pIC50", "measured": "6.00 to 7.00"}
{"molecule": "CC[C@H](C)[C@H](NC(C)=O)C(=O)N[C@H](C(=O)N[C@@H](Cc1ccccc1)C(=O)N[C@]1(C)CCCCCCC=CCCC[C@@](C)(C(=O)N[C@@H](C)C(=O)N[C@@H](Cc2c[nH]cn2)C(=O)N[C@@H](Cc2ccccc2)C(=O)N[C@@H](C)C(N)=O)NC(=O)[C@H](CC(C)C)NC(=O)[C@H](CCC(N)=O)NC(=O)[C@H](C)NC(=O)[C@H](Cc2c[nH]c3ccccc23)NC(=O)[C@H](Cc2c[nH]cn2)NC(=O)[C@H](CCC(=O)O)NC1=O)[C@@H](C)O (single isomer, unassigned)", "outcome.measure": "pIC50", "measured": "6.00 to 7.00"}

Shift focus to the following entry.
Q: Query (molecule): CC[C@H](C)[C@H](NC(=O)[C@H](C)NC(=O)[C@H](C)NC(=O)[C@]1(C)CCCC=CCCCCCC[C@@](C)(NC(=O)[C@H](Cc2ccccc2)NC(=O)[C@@H](NC(=O)[C@H](CC(C)C)NC(C)=O)[C@@H](C)O)C(=O)N[C@@H](C)C(=O)N[C@@H](Cc2ccc(C(=O)O)cc2)C(=O)N[C@@H](Cc2c[nH]c3ccccc23)C(=O)N[C@@H](C)C(=O)N[C@@H](CCC(N)=O)C(=O)N[C@@H](CC2CCC2)C(=O)N1)C(=O)N[C@H](C)C(N)=O [compound 267] (Ac-LTF[R8]A[Phe(4-COOH)]WAQ[Cba][S5]AAI[dA]-NH2; staple 4-11) ; field requested: pIC50
Ans: 7.00 to 8.00
